Test: qHTS of pediatric cancer cell lines to identify multiple opportunities for drug repurposing: Primary screen for RD cells (AID 1347104); further: nearly all actives have a fitted effect of over 55% in size
Conditions: RD rhabdomyosarcoma viability, CellTiter-Glo luminescence, 48 h; series mostly up to 46 µM
Inconclusive results are not listed. Activity calls are given as the source filed them. The call rests on the fitted dose curve; in most records, active means well fitted cell-killing curve with a large enough effect; inconclusive means small, poorly fitted or top-dose-only effect; inactive means flat fitted curve, though single readings scatter.
Return exactly one item of active, inactive

These recorded examples may help you get a feel for the data.
CCCCCN=C(N)NN=Cc1c[nH]c2ccc(OC)cc12    active
C[C@]12CCC(=O)C=C1[C@@H]1CC1[C@H]1[C@H]3[C@@H]4C[C@H]4[C@@]4(CCC(=O)O4)[C@@]3(C)CC[C@H]12 (stereo partly specified)    inactive
CON=C(C(=O)N[C@@H]1C(=O)N2C(C(=O)O)=C(Cn3ccc(=N)n3CCO)CS[C@H]12)c1csc(N)n1    inactive
CC(=O)OC[C@@H]1O[C@@H](n2ccc(=O)[nH]c2=O)[C@H](OC(C)=O)[C@H]1OC(C)=O    inactive
COc1cc(OC)c(NC(=O)Nc2cc(C)on2)cc1Cl    inactive

Attention now turns to another entry.
Incoming: Returns: the outcome recorded for "CN(C)c1ccc(C(=O)NCCCCCCC(=O)NO)cc1" in this assay.
Outgoing: active
